system: UO-31; experiment: NCI tumour cell line growth inhibition, 48 h
Active and inactive are the calls of the source. No stated cut-off is given here; in the data, active = GI50 up to about 1.1 µM and inactive = higher.
A collection of compounds and their measured GI50

As a guide, the following entries are already answered.
{"Compound": "O=C(O)c1cc([N+](=O)[O-])cc2c(=O)c3cnccc3[nH]c12", "GI50": "> 100 µM (inactive)"}
{"Compound": "CC(=O)OCC1OC(N2C(=O)C(=O)c3ccccc32)C(OC(C)=O)C(OC(C)=O)C1OC(C)=O (stereo not given)", "GI50": "> 100 µM (inactive)"}

Need GI50, item `O=C(N/N=C/c1ccc([N+](=O)[O-])cc1)Nc1ccc(C(=O)O)cc1`
22.1 µM (inactive)

Need GI50, item `CCOc1ccc(NCC(=O)N2CC(=O)Nc3ccccc32)cc1`
> 100 µM (inactive)

Need GI50, item CC(=O)OC1CC2OC(Cc3ccccc32)O1 (stereo not given)
> 100 µM (inactive)

Values compiled from ChEMBL document CHEMBL1201862.
